- method_description: Clearance in rat at 1.04 mg/kg, iv
- Assay type: ADME, organism-based
- Parameters: dose 1.04 mg/kg, route intravenous
- cond: in vivo
reported_endpoint: clearance (mL/min/kg)
State the answer as a number, implicitly in mL/min/kg.

Using the record for Cc1ccc(Nc2nc(C(=O)N3CCCC(C)C3C)cs2)cc1 (stereo unspecified) , report its clearance. 75

###

- method_description: Oral bioavailability in rat at 1.04 mg/kg
- Format: ADME, organism-based
- cond: in vivo
reported_endpoint: bioavailability

# bioavailability lookup, item Cc1ccc(Nc2nc(C(=O)N3CCCC(C)C3C)cs2)cc1 (stereo unspecified) < 1%
